test: growth modulation of vineyard yeast isolate – strain RM11-1a, OD600, basal, 24 h, primary screen (AID 1177);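 further: cultures grown under basal conditions with no added stressor; test concentration not given here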; settings: S. cerevisiae RM11-1a growth, OD600, 24 h, called active from +8 up or from −8 down
Activity calls are given as the source filed them.
Outcome field: choose from T = active, F = inactive

Per the assay record, what outcome was assigned to CCCc1cc2c(n1Cc1ccc(OC)cc1)C(C)C1CN(C(=O)c3ccccc3)C(C)(C(=O)OC)C21 (configuration not stated) ?
F

Another compound to check: `CC(C)NC(=O)[C@@]1(Cc2ccccc2I)c2ccccc2C(=O)N(Cc2ccccc2C(F)(F)F)[C@H]1c1ccc(CO)cc1`
F

Another compound to check: `COCCOC(=O)N1C(=O)[C@@]2(c3cc(C#CCCO)ccc31)[C@H](c1ccc(OCCO)cc1)N1[C@H](c3ccccc3)[C@H](c3ccccc3)OC(=O)[C@H]1[C@@H]2C(=O)N1CCc2cc(OC)c(OC)cc2C1`
F

Another compound to check: `C=C[C@H](C)[C@H](OC(=O)Nc1ccc(SC)cc1)c1ccc(O)c2ccccc12`
F

Another compound to check: CC(C)C[C@@H]1NC(=O)[C@@]23C(=O)N[C@@H](Cc4ccccc4)C2[C@H](C)[C@@]2(C)O[C@H]2C3/C=C/C/C=C\CNC(=O)[C@@H]2CCCN2C1=O (some centres not stated)
F

Another compound to check: `C=C(/C(=C/C[C@@H](OC(=O)c1ccncc1)c1ccccc1OCCO)c1cnc2ccccc2c1)C(C)C`
T

Another compound to check: `C[N+](C)(C)CCCCNC(=O)[C@H]1C[C@H]2C(=O)NCC(=O)N2[C@H]1c1ccc(O)cc1`
F
